Test system: HCT-15
We label by threshold. Values of GI50 strictly beneath 30 µM are criterion met. Values of 30 µM and up are criterion not met.

compound | group label
O=S(=O)(O)c1ccc2c(/N=N/c3ccc(Sc4ccc(/N=N/c5c(O)ccc6cc(S(=O)(=O)O)ccc56)cc4)cc3)c(O)ccc2c1 | criterion not met
COc1ccc2c(c1)CC[C@@H]1[C@@H]2CC[C@]2(C)C(=O)/C(=C/c3ccc(O)c(OC)c3)C[C@@H]12 | criterion met
CCOP(=O)(OCC)C(C)(CC)N/C(=N\C1=NC(C(F)(F)F)(C(F)(F)F)N=C(C(F)(F)F)O1)NC(NC(C)=O)(C(F)(F)F)C(F)(F)F (stereo not drawn) | criterion not met
COC(=O)CCCC1(CCCC(=O)OC)CCCCCCCCC(CCCC(=O)OC)(CCCC(=O)OC)C(=O)C1=O | criterion not met
CCOC(=O)c1sc2nc(SC)nc3c2c1NCN3C | criterion not met
COc1ccc(C[C@@H]2OC3(C=CC(=O)CC3Sc3ccccc3)O[C@H]2Cc2ccc(OC)cc2)cc1 (stereo partly drawn) | criterion met
CC(CC[C@@]1(C)C(=O)CCC2O[C@]21C)[C@H]1C[C@@H](c2ccoc2)OC1=O (stereo partly drawn) | criterion not met
CSC1=N/C(=C\c2ccc(C)cc2)C(=O)N1CN1CCCCC1 | criterion not met

* * *

System: SNB-19
protocol: NCI tumour cell line growth inhibition, 48 h
Calls of active or inactive are those of the source. Rule as the data show it: active = GI50 up to about 1.1 µM and inactive = higher.
Reported GI50 by item:

compound | GI50
Cc1ccc(C)c(NC(=O)C(=O)CC(=O)C2CCOC2=O)c1 (stereo not given) | > 100 µM (inactive)
COc1ccc2nc3cc(Cl)ccc3c(Sc3ccc([N+](=O)[O-])cc3)c2c1 | > 10 µM (inactive)
CCOc1cc(C2SCC(=O)N2c2nc3cc4sc(N5C(=O)CSC5c5ccc(O)c(OCC)c5)nc4cc3s2)ccc1O (stereo not given) | 41.3 µM (inactive)
CC(=O)c1ccc(NC(=O)/C(=N\NC(N)=O)C(C#N)CC(C)(C)C=O)cc1 (stereo not given) | > 100 µM (inactive)
Cc1ccc(Nc2ncnc3sc(SCc4ccccc4)nc23)cc1 | > 100 µM (inactive)
CCOC(=O)C(Cc1ccc([N+](=O)[O-])cc1)NC(=O)CC1c2ccccc2-c2ccccc21 (stereo not given) | 39.3 µM (inactive)
c1ccc2c(c1)[nH]c1c2cc[n+]2cc3c(cc12)CCCC3 | 3 µM (inactive)
Cc1cc(C)nc(NS(=O)(=O)c2ccc(NC(=O)c3cccc4c(Nc5ccc(S(=O)(=O)Nc6nc(C)cc(C)n6)cc5)c5ccc(Cl)cc5nc34)cc2)n1 | 28.1 µM (inactive)
Cc1ccc(C2=NN(C)COC2C(F)(F)F)cc1 (stereo not given) | > 100 µM (inactive)
Cn1c(=S)c2nc(SCCN3C(=O)c4ccccc4C3=O)[nH]c2n(C)c1=O | > 100 µM (inactive)
CCOC(=O)N1CCN(C=S)CC1 | > 100 µM (inactive)
O=S(=O)(O)c1cc(O)c2c(O)c(/N=N/c3ccc(/C=C/c4ccc(/N=N/c5c(S(=O)(=O)O)cc6cc(S(=O)(=O)O)cc(O)c6c5O)cc4S(=O)(=O)O)c(S(=O)(=O)O)c3)c(S(=O)(=O)O)cc2c1 | > 100 µM (inactive)
O=C(Oc1ccc(C(c2c(O)c3ccccc3oc2=O)c2c(O)c3ccccc3oc2=O)cc1)c1ccc(C(=O)c2ccccc2)cc1 | 17.4 µM (inactive)
Cc1ccc(NC(=O)CCc2nnc3s/c(=C\C=C\c4ccccc4)c(=O)n23)cc1 | > 79.6 µM (inactive)
COC(=O)C1=C(C(=O)OC)SC2(S1)C1=C(CCC1)SC(C(=O)OC)=C2C(=O)OC | 19.6 µM (inactive)
CCCCCCCCCCCCCCCC(=O)OCC1OC(OC)C(NC(=O)N(CCCl)N=O)C(O)C1O (stereo not given) | 14.8 µM (inactive)
O=C(O)CNCCc1ccccc1 | > 100 µM (inactive)
C/C(=N\OCC(O)CNC(C)C)c1ccc2c(c1)NC(=O)CS2 (stereo not given) | > 100 µM (inactive)
COc1cc(CC(C)N)ccc1O (stereo not given) | > 100 µM (inactive)
COc1cccc(-c2nc3c(C(=O)NCCN(C)C)cccc3[nH]2)c1 | 31.3 µM (inactive)
COC(=O)C(CC(=O)c1cc2c(cc1I)OCO2)Cc1cc(OC)c(OC)c(OC)c1I (stereo not given) | > 100 µM (inactive)
COc1ccc(C[C@@H]2OC3(C=CC(=O)CC3Sc3ccccc3)O[C@H]2Cc2ccc(OC)cc2)cc1 (stereo not given in full) | 2.61 µM (inactive)
Cc1cccc(NC(=O)Cc2nc3ccccc3s2)c1C | > 100 µM (inactive)
COc1cc(C2c3cc4c(cc3[C@@H](Nc3ccc(F)cc3)C3COC(=O)[C@H]23)OCO4)cc(OC)c1O (stereo not given in full) | 1.38 µM (inactive)
O=C1/C(=C/c2cccc(Oc3ccccc3)c2)N=C(c2ccccc2)N1c1nc2ccc(Sc3ccccc3)cc2[nH]1 | 35.5 µM (inactive)
CCOC(=O)C1N(S(=O)(=O)c2ccc(C)cc2)CCC12C(c1ccc(OC)cc1)NC1CCCCC12 (stereo not given) | > 100 µM (inactive)
COC(=O)C1CC2CC1C1C2SC(F)(F)C1(F)F (stereo not given) | > 100 µM (inactive)
C/C(=N\NC(=N)N)C(CN1CCCCC1)C(c1ccccc1)c1c(O)c2ccccc2oc1=O (stereo not given) | > 100 µM (inactive)
[O-]/[N+](=N/c1ncc(-c2ccccc2)cn1)c1ncc(-c2ccccc2)cn1 | > 58.3 µM (inactive)
CC1=C(C)CC2(C=C(C(C)(C)C)C(=O)C(C(C)(C)C)=C2)SC1 | 17.3 µM (inactive)
CC1=C(C#N)c2nc3ccccc3n2C(=O)C1(C)CCO (stereo not given) | > 100 µM (inactive)
N/C(=N\c1ccc(Cl)cc1)NS(=O)(=O)c1ccc(-c2ccccn2)s1 | 16.3 µM (inactive)
c1ccc(C2Nc3ccccc3C3OCCCC23)cc1 (stereo not given) | 31.3 µM (inactive)
NC(CCC(=O)O)C(=O)NC(Cc1ccc(N(CCCl)CCCl)cc1)C(=O)O (stereo not given) | > 100 µM (inactive)
O=C1O[C@H](c2ccc3c(c2)OCO3)[C@H]2CO[C@@H](c3ccc4c(c3)OCO4)[C@@H]12 | > 100 µM (inactive)
CC(C)C1OC2(C)OC(=N)C1(C#N)C(C#N)(C#N)C2C (stereo not given) | > 10 µM (inactive)
C/C(=N\O)C1CC2C=C(C#N)C1N(Cc1ccccc1)C2 (stereo not given) | > 100 µM (inactive)
N/C(=N/O)c1cn(C2OC(CO)C(O)C2O)c2ncnc(NO)c12 (stereo not given) | 0.514 µM (active)
CC1=C2C(=O)O[C@@H](c3ccoc3)[C@]2(C)CCC1 [FRAXINELLONE] | > 100 µM (inactive)
[N-]=[N+]=N[C@H]1C[C@@H](CO)O[C@H]1n1cnc2c(N)ncnc21 | > 100 µM (inactive)
